# System: MALME-3M melanoma
# protocol-text: NCI-60 one-dose screen, 48 h
# condition-details: 10 µM unless noted
About 83,000 compounds went through this panel and 20% of them were active in at least one assay; those are over-represented in the sample as a whole. Active and inactive are the calls of the source. How the source made its calls: active means growth percent below 10; inactive means the rest.
Possible outcomes: active, inactive

[[record]]
molecule = "CCCCCCCC12Cc3ccccc3C1=Nc1c(c3ccccc3n1C)C2=O (stereo not drawn)"
assigned_class = "inactive"

[[record]]
molecule = "Cc1cc(N(CCNc2ccnc3cc(Cl)ccc23)Cc2ccc3c(c2)OCO3)nc(N2CCCC2)n1"
assigned_class = "active"

[[record]]
molecule = "CCN1CCN(Cc2ccc(NC(=O)Nc3nc(-c4cc(OC)c(OC)c(OC)c4)cs3)cc2C(F)(F)F)CC1"
assigned_class = "active"

[[record]]
molecule = "O=S1(=O)OC(c2ccc(O)c(Cl)c2)(c2ccc(O)c(Cl)c2)c2ccccc21"
assigned_class = "inactive"

[[record]]
molecule = "COc1ccc2c(c1OC)C(=O)O[C@@H]2[C@H]1c2c(c(C#CC#Cc3ccc(F)c(F)c3)c3c(c2OC)OCO3)CCN1C"
assigned_class = "inactive"

[[record]]
molecule = "Cc1ccccc1N1C(c2ccccc2)=NNC12C=CC(=O)C=C2Cl (stereo not drawn)"
assigned_class = "inactive"

[[record]]
molecule = "CO[C@@H](C)Cn1c(=O)n(C)c2cnc3ccc(-c4cncc(C(C)(C)O)c4)cc3c21"
assigned_class = "active"

[[record]]
molecule = "CC(C)c1cc(CNc2nc(Nc3cc(C4CC4)[nH]n3)cc(N3CCN(C)CC3)n2)on1"
assigned_class = "active"


* * *

The reader will find reported growth values listed item by item below.
# Tested on: KM12 colon
# protocol-text: NCI-60 one-dose screen, 48 h (100 = growth as untreated, 0 = no growth, -100 = all killed)
# condition-details: 10 µM unless noted
This is part of a sample that, as a whole, favours compounds with a hit. Of some 83,000 tested, about 20% had one in any assay.
result-type: growth (%)

[[record]]
compound = "CN(C[C@@H]1COCCO1)S(=O)(=O)Nc1ccc2ccc3ncc(-c4cnn(C)c4)cc3c(=O)c2c1"
measurement = 10.2

[[record]]
compound = "Cc1nc(N)sc1-c1ccnc(Nc2ccc(N3CCOCC3)cc2)n1"
measurement = 23.7

[[record]]
compound = "Cc1nc(-c2cn3c(n2)-c2ccc(-c4cnn(C(C)(C)C(N)=O)c4)cc2OCC3)n(C(C)C)n1"
measurement = 16.2

[[record]]
compound = "O=C(c1ccc(/C=C/c2n[nH]c3ccccc23)cc1)N1CCNCC1"
measurement = 8.09

[[record]]
compound = "Nc1ncnc2c1ccn2-c1cccc(NC(=O)c2ccc(N3CCOCC3)c(C(F)(F)F)c2)c1"
measurement = 31

[[record]]
compound = "O=C1C=CC2(NN=C(c3ccccc3)N2c2ccccc2)c2cccc(O)c21 (configuration not stated)"
measurement = 47.3

[[record]]
compound = "CS(=O)(=O)N1CCN(Cc2cc3nc(-c4cccc5[nH]ncc45)nc(N4CCOCC4)c3s2)CC1"
measurement = 16.3

[[record]]
compound = "COc1cc2cc(NCc3ccc(Cl)cc3)nc(C)c2cc1OC"
measurement = 37.2

[[record]]
compound = "CC1(O)CC(c2nc(-c3ccc4ccc(-c5ccccc5)nc4c3)c3c(N)nccn23)C1 (configuration not stated)"
measurement = 8.69

[[record]]
compound = "O=C1OCC2=C1C(c1cccc(F)c1)c1cc3c(cc1N2CCO)OCCO3 (configuration not stated)"
measurement = 14

[[record]]
compound = "O=C(Nc1ccc(C2=NCCCN2)cc1)c1ccc(C(=O)Nc2ccc(C3=NCCCN3)cc2)nc1"
measurement = 112

[[record]]
compound = "CC/C=C\\C[C@H]1C/C=C2/C(=O)C=C[C@@H]2C/C=C\\CCCC(=O)O1"
measurement = -68.7


* * *

Listed below: growth values for each entry.
# Test system: T-47D breast
# protocol-text: NCI-60 one-dose screen, 48 h (100 = growth as untreated, 0 = no growth, -100 = all killed)
# condition-details: 10 µM unless noted
This is part of a sample that, as a whole, favours compounds with a hit. Of some 83,000 tested, about 20% had one in any assay.
result-type: growth (%)

[[record]]
compound = "COc1ccc2c(CCCc3ccc(Cl)cc3Cl)c3[n+](cc2c1OC)CCc1cc2c(cc1-3)OCO2"
measurement = 3.35

[[record]]
compound = "O=C(c1ccc(F)c(F)c1Nc1ccc(I)cc1F)N1CC(O)([C@@H]2CCCCN2)C1"
measurement = 11.8

[[record]]
compound = "Cn1ccnc1C(=O)/C=C/c1ccc(CC(=O)Nc2ccc(C(F)(F)F)cc2)cc1"
measurement = 3.52

[[record]]
compound = "O=C(CNc1nc(-c2ccc(Cl)cc2)cs1)Nc1ccc(-c2nc3ccccc3s2)cc1"
measurement = 56.1

[[record]]
compound = "Cn1ccnc1C(=O)/C=C/c1ccc(CC(=O)Nc2ccc(Br)cc2)cc1"
measurement = 4.43

[[record]]
compound = "O=C1CC(c2cccc(F)c2)c2c(n[nH]c2-c2ccc(Cl)cc2)N1 (stereo unspecified)"
measurement = 55.8


* * *

# Test system: UACC-62 melanoma
# protocol-text: NCI-60 one-dose screen, 48 h (100 = growth as untreated, 0 = no growth, -100 = all killed)
# condition-details: 10 µM unless noted
The panel holds about 83,000 compounds, 20% with a hit somewhere; the sample as a whole holds those more often.
result-type: growth (%)

[[record]]
molecule = "CCOc1cc2ncc(C#N)c(Nc3ccc(OCc4ccccn4)c(Cl)c3)c2cc1NC(=O)/C=C/CN(C)C"
result_type = "growth"
measurement = -64.1

[[record]]
molecule = "O=C1CC(c2cccc(F)c2)c2c(n[nH]c2-c2ccc(Cl)cc2)N1 (stereo unspecified)"
result_type = "growth"
measurement = 86.2

[[record]]
molecule = "COc1cc(-c2cc(-c3ccc(Nc4ccnc5cc(Cl)ccc45)cc3)nc(N3CCOCC3)n2)cc(OC)c1OC"
result_type = "growth"
measurement = 70.1

[[record]]
molecule = "CCCCCc1ccc(C)cc1OC(=O)CCl"
result_type = "growth"
measurement = 113

[[record]]
molecule = "O=C(N/N=C/c1ccc(Cl)cc1)c1cc(-c2cc3ccccc3o2)nn1-c1ccccc1"
result_type = "growth"
measurement = 83.7

[[record]]
molecule = "CCCCCC(=O)OCc1ccc(Cl)c(Cl)c1"
result_type = "growth"
measurement = 106

[[record]]
molecule = "CCn1c(-c2nonc2N)nc2c(C#CC(C)(C)O)ncc(OC[C@H]3CCCNC3)c21"
result_type = "growth"
measurement = 79.8

[[record]]
molecule = "CCN(CC)C(=O)C[N+](C)(C)CCOC(c1ccccc1)c1ccccc1"
result_type = "growth"
measurement = 106

[[record]]
molecule = "O=C1CCC(=O)CC1"
result_type = "growth"
measurement = 99

[[record]]
molecule = "COC(=O)[C@@H](C)CNS(=O)(=O)N(c1cc(C(F)(F)F)cc(C(F)(F)F)c1)C1CCN(Cc2ccc(F)cc2)CC1"
result_type = "growth"
measurement = 69.1

[[record]]
molecule = "CN(C)CCn1c(=O)c2c3cc4c(cc3n(CCN(C)C)c2c2ccc(Cl)cc21)OCO4"
result_type = "growth"
measurement = 76.9

[[record]]
molecule = "O=CC(OC(=O)c1ccccc1)C(OC(=O)c1ccccc1)C(COC(c1ccccc1)(c1ccccc1)c1ccccc1)OC(=O)c1ccccc1 (stereo unspecified)"
result_type = "growth"
measurement = 63.4

[[record]]
molecule = "COc1ccc(-c2ccc3c(N4CCOC[C@@H]4C)nc(N4CCOC[C@@H]4C)nc3n2)cc1CO"
result_type = "growth"
measurement = -32.3

[[record]]
molecule = "CN1CC[C@@H](c2c(O)cc(O)c3c(=O)cc(-c4ccccc4Cl)oc23)[C@@H]1CO"
result_type = "growth"
measurement = -51.4

[[record]]
molecule = "Cc1ccccc1N1C(c2ccccc2)=NNC12C=CC(=O)C=C2Cl (stereo unspecified)"
result_type = "growth"
measurement = 98.1

[[record]]
molecule = "O=C(O)C1(Cc2cccc(Nc3nccs3)n2)CCC(Oc2cccc(Cl)c2F)CC1 (stereo unspecified)"
result_type = "growth"
measurement = 61.8

[[record]]
molecule = "Cc1cnc(NC(=O)Nc2cc(Br)c(C)cc2OC[C@@H]2CNCCO2)cn1"
result_type = "growth"
measurement = 12.2

[[record]]
molecule = "Nc1cc2c(cc1Br)-c1c(C(=O)O)cccc1C2O (stereo unspecified)"
result_type = "growth"
measurement = 90.9

[[record]]
molecule = "C1=C\\COCc2cc(ccc2OCCN2CCCC2)Nc2nccc(n2)-c2cccc(c2)COC/1"
result_type = "growth"
measurement = -68.7

[[record]]
molecule = "COc1cc2nccc(Oc3ccc(NC(=O)Nc4cc(C)on4)c(Cl)c3)c2cc1OC"
result_type = "growth"
measurement = 11.5

[[record]]
molecule = "Cc1nc(NC(=O)N2CCC[C@H]2C(N)=O)sc1-c1ccnc(C(C)(C)C(F)(F)F)c1"
result_type = "growth"
measurement = 23.8

[[record]]
molecule = "Cc1ccc(N)cc1CN1C(=O)c2ccccc2C1=O"
result_type = "growth"
measurement = 103

[[record]]
molecule = "COc1cc(-c2nc(C(=O)NCC(=O)O)nn2-c2ccc(Cl)cc2)cc(OC)c1OC"
result_type = "growth"
measurement = 104

[[record]]
molecule = "COc1ccc(C(=O)c2cc(OC)c(OC)c(OC)c2)cc1/C=C/C(=O)c1ccc(F)cc1"
result_type = "growth"
measurement = 45.5

[[record]]
molecule = "CC[C@@H]1C(=O)N(C)c2cnc(Nc3ccc(C(=O)NC4CCC(N5CCN(CC6CC6)CC5)CC4)cc3OC)nc2N1C(C)C (stereo partly specified)"
result_type = "growth"
measurement = -47.3

[[record]]
molecule = "CCc1nc(C(N)=O)c(Nc2ccc(N3CCC(N4CCN(C)CC4)CC3)c(OC)c2)nc1NC1CCOCC1"
result_type = "growth"
measurement = 25.3

